Molecular target: LNX1_2, Q8TBB1
Sequence (Q8TBB1 371-470): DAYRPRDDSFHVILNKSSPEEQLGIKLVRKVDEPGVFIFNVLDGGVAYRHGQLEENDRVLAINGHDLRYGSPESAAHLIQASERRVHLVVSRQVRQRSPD
Assay: holdup assay
Set-up: key: below the threshold = too weak to quantify, mostly under pKd 3.1 to 4
Settings: plain residues with an end cap or a label only (N-terminal biotin on a linker: ado-ado)
MEASUREMENT_LABEL: pKd

Here is how some binders turned out for pKd.
EDLEDEWEVI [TECPR2, O15040]: below the threshold
SLNANEVEWF [RNF130, Q86XS8]: below the threshold
EKCGKEFSEF [PRKACA, P17612]: below the threshold
TRKRSGEAAV [PFKM, P08237]: below the threshold
EDGESWEYQI [TRPV6, Q9H1D0]: below the threshold

**Q:** May I ask what pKd has been recorded for PYPTADHMLA [JUP, P14923] ?
**A:** below the threshold

**Q:** May I ask what pKd has been recorded for LKDDELKTKL [SLCO1A2, P46721] ?
**A:** below the threshold

**Q:** May I ask what pKd has been recorded for DPAESMESLV [PTPRG, P23470] ?
**A:** below the threshold

**Q:** May I ask what pKd has been recorded for IDESKKEWLI [CNTNAP2, Q9UHC6] ?
**A:** 3.66

**Q:** May I ask what pKd has been recorded for TGLWKHETTV [ADGRA3, Q8IWK6] ?
**A:** 3.8

**Q:** May I ask what pKd has been recorded for PYSESDDDWC [CACNA1A, O00555] ?
**A:** below the threshold

**Q:** May I ask what pKd has been recorded for QSGLYESEEL [MYOT, Q9UBF9] ?
**A:** below the threshold

**Q:** May I ask what pKd has been recorded for NISYRRESAI [KCNJ4, P48050] ?
**A:** below the threshold

**Q:** May I ask what pKd has been recorded for ILRKSTTTTV [PRR16, Q569H4] ?
**A:** 3.8

**Q:** May I ask what pKd has been recorded for ARGPPRESEV [FAM110D, Q8TAY7] ?
**A:** below the threshold

**Q:** May I ask what pKd has been recorded for KPGKGSETVV [FZD4, Q9ULV1] ?
**A:** 3.56
